target: CRD-BP-CD44 RNA interaction (Mus musculus, UniProt O88477); construct: The plasmid pET28b(+)-CRD-BP which contains the entire coding region of mouse CRD-BP cDNA; FLAG (N); 6xHis (C); made in house; host or cells: Escherichia coli BL21(DE3); assay: EMSA competition and inhibition assay; format: binding
Sequence (O88477 whole entry, the tested form may be a part): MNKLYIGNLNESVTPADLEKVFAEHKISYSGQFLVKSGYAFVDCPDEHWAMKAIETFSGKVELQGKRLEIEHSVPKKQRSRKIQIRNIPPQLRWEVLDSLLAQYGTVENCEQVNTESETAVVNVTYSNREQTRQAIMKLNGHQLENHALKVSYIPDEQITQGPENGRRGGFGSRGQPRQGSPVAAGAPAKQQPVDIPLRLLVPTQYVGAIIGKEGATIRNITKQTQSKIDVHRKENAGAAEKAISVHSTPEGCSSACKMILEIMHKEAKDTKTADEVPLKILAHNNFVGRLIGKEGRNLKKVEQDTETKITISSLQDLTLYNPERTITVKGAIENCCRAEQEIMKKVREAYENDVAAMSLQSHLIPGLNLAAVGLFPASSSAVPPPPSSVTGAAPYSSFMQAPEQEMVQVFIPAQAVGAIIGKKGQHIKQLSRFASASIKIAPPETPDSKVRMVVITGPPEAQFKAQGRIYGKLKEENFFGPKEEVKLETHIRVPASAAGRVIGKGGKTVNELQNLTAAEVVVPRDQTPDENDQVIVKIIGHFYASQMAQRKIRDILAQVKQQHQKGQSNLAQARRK
Exercise: state measured pIC50 for each of the molecules provided.
One number for each entry, as −log10 of the molar value.

Here are 2 molecules together with their reported answers.
* NC[C@H]1O[C@H](O[C@H]2[C@H](O)[C@@H](O[C@H]3O[C@H](CO)[C@@H](O)[C@H](N)[C@H]3O)[C@H](N)C[C@@H]2N)[C@H](N)[C@@H](O)[C@@H]1O [Kanamycin B, reference compound] | 3.63
* NC[C@@H]1O[C@H](O[C@H]2[C@@H](O)[C@H](O[C@@H]3[C@@H](O)[C@H](N)C[C@H](N)[C@H]3O[C@H]3O[C@H](CO)[C@@H](O)[C@H](O)[C@H]3N)O[C@@H]2CO)[C@H](N)[C@@H](O)[C@@H]1O [Paromomycin, reference compound] | 4.23

Value wanted: pIC50 (CRD-BP-CD44 RNA interaction (Mus musculus, UniProt O88477)) of entry [H]/N=C(/N)N[C@H]1[C@H](O)[C@@H](O)[C@H](O[C@@H]2O[C@@H](C)[C@](O)(C=O)[C@H]2O[C@@H]2O[C@@H](CO)[C@H](O)[C@@H](O)[C@@H]2NC)[C@@H](N/C(N)=N\[H])[C@@H]1O [Streptomycin, reference compound]
3.31

----------
target: CRD-BP-CD44 RNA interaction (Mus musculus); construct: The plasmid pET28b(+)-CRD-BP which contains the entire coding region of mouse CRD-BP cDNA; FLAG (N); 6xHis (C); made in house; host or cells: Escherichia coli BL21(DE3); test: EMSA competition and inhibition assay; type: binding; conditions: EMSA, [32P] CD44 Fragment 4
Reported Property: inhibition of the CRD-BP-CD44 RNA interaction in vitro (in words)

• NC[C@@H]1O[C@H](O[C@H]2[C@@H](O)[C@H](O[C@@H]3[C@@H](O)[C@H](N)C[C@H](N)[C@H]3O[C@H]3O[C@H](CO)[C@@H](O)[C@H](O)[C@H]3N)O[C@@H]2CO)[C@H](N)[C@@H](O)[C@@H]1O [Paromomycin, reference compound] = effectively inhibited
• [H]/N=C(/N)N[C@H]1[C@H](O)[C@@H](O)[C@H](O[C@@H]2O[C@@H](C)[C@](O)(C=O)[C@H]2O[C@@H]2O[C@@H](CO)[C@H](O)[C@@H](O)[C@@H]2NC)[C@@H](N/C(N)=N\[H])[C@@H]1O [Streptomycin, reference compound] = effectively inhibited
• NC[C@H]1O[C@H](O[C@H]2[C@H](O)[C@@H](O[C@H]3O[C@H](CO)[C@@H](O)[C@H](N)[C@H]3O)[C@H](N)C[C@@H]2N)[C@H](N)[C@@H](O)[C@@H]1O [Kanamycin B, reference compound] = effectively inhibited

----------
biological target: CRD-BP-CD44 RNA interaction (Mus musculus, UniProt O88477); construct: The plasmid pET28b(+)-CRD-BP which contains the entire coding region of mouse CRD-BP cDNA; FLAG (N); 6xHis (C); made in house; host or cells: Escherichia coli BL21(DE3); assay: EMSA competition and inhibition assay; assay type: binding
pIC50: −log10 of the molar value.
Reported Property: pIC50

* COc1ccc(C[C@H](N)C(=O)N[C@H]2[C@@H](O)[C@H](n3cnc4c(N(C)C)ncnc43)O[C@@H]2CO)cc1 [Puromycin, reference compound] | < 3.00
* NC[C@H]1O[C@H](O[C@H]2[C@H](O)[C@@H](O[C@H]3O[C@H](CO)[C@@H](O)[C@H](N)[C@H]3O)[C@H](N)C[C@@H]2N)[C@H](N)C[C@@H]1O [Tobramycin, reference compound] | < 3.00
* CN[C@@H]1C[C@H](N)[C@@H](O)[C@H](O[C@H]2O[C@H](CO)[C@H](O)[C@@H]3O[C@@]4(O[C@@H]23)O[C@H]([C@H](N)CO)[C@H](O)[C@H](O)[C@H]4O)[C@H]1O [Hygromycin B, reference compound] | < 3.00

Now look at this entry.
Which pIC50 is reported for this compound? CC[C@H]1OC(=O)[C@H](C)[C@@H](O[C@H]2C[C@@](C)(OC)[C@@H](O)[C@H](C)O2)[C@H](C)[C@@H](O[C@@H]2O[C@H](C)C[C@H](N(C)C)[C@H]2O)[C@](C)(O)C[C@@H](C)C(=O)[C@H](C)[C@@H](O)[C@]1(C)O [Erythromycin, reference compound]
< 3.00
